System: T-47D breast
Assay Procedure: NCI tumour cell line growth inhibition, 48 h
Recorded Metric: TGI

# `CCSc1[nH]c(Nc2nc(-c3ccccc3)n(-c3ccccc3)n2)c(C(N)=O)c1C(N)=O` with T-47D breast: TGI is > 10 µM

Log: T-47D breast, compound `O=C(O)c1cccnc1` , TGI = > 100 µM

// returns TGI for `COc1ccc(-c2nc(SCC(=O)N/N=C/c3ccc(O)c(OC)c3)[nH]c2-c2ccc(OC)cc2)cc1` with T-47D breast; value = > 100 µM

Response field TGI (T-47D breast) for item `O=C(O)CCN(CCC(=O)O)c1ccc(/C=C2\SC(=S)NC2=O)cc1` : > 100 µM

Bench note, T-47D breast: `C1CSCCSCCS1` , TGI reads > 100 µM

GET /values?item= `CC(=O)Nc1ccc(-c2nc3cc(Cl)ccc3o2)cc1` &system= T-47D breast returns TGI: > 50 µM

* * *

System: OVCAR-3 ovarian
Assay Procedure: NCI tumour cell line growth inhibition, 48 h
Exercise: state measured TGI for each of the compounds provided.
Give your result in µM as a bare value.

get_value(item= `Nc1nccc2c1ccn2-c1ccc(NC(=O)c2ccc(N3CCOCC3)c(C(F)(F)F)c2)cc1` , readout=TGI) returns 15.7

get_value(item= `Cn1cc(C2=C(c3cn(C)c4cc(C(N)=O)ccc34)C(=O)NC2=O)c2ccccc21` , readout=TGI) returns 1.57

TGI reading for CCCCCC(/C=C/C1CCC(=O)C1CC#C[Si](C)(C)C)OCc1ccccc1 (configuration not stated) : 39.1

GET /value?item= `O=C(NS(=O)(=O)OCC(Cl)(Cl)Cl)SCCC(F)(F)C(F)(F)C(F)(F)C(F)(F)C(F)(F)C(F)(F)F` &field=TGI returns 48.3

// field: TGI; key: `Cc1ccc(Cn2c(C)nc3c2C(=O)c2ccccc2C3=O)cc1` ; value = 36.6

Noted for `CC#C[P+](c1ccccc1)(c1ccccc1)c1ccccc1` : its TGI reads 14.3

Lookup result for COc1ccc(OC)c(C2Cc3cnc4nc(N)nc(N)c4c3C2)c1 (configuration not stated) ; measured TGI: 41.6

Lab note: `C[C@H]1C2Cc3cc(N)ccc3[C@@]1(C)CCN2CCc1ccccc1` gave TGI of 92.6

Sample `N#Cc1c(-c2ccc(F)cc2)c(-c2ccc(F)cc2)nn(CCO)c1=O` ; TGI observed: 0.69

# TGI of C=CCCCCCCCCCCC1(O)C=CC2=[N+](CCCCCN=C(N)N)CCCN21 (configuration not stated) = 36.8

// field: TGI; key: `CC(CCC#N)(CCC#N)C(=O)CC(O)(C(F)(F)F)C(F)(F)F` ; value = 7.73

Reported TGI for `COc1ccc(-c2nc(SCC(=O)N/N=C/c3ccc(O)c(OC)c3)[nH]c2-c2ccc(OC)cc2)cc1` was 48

* * *

Test system: A498 renal
Assay Procedure: NCI tumour cell line growth inhibition, 48 h; in the data active = GI50 below about 0.43 µM; inactive = the rest
Choose the fitting class; nothing outside yes for active, no for inactive is accepted.

Just curious, what result did `Nc1c(C(=O)Nc2cccc(Br)c2)sc2nc3c(cc12)C(=O)CCC3` get here?
yes

Recorded test call requested for `Cc1ccc(/C=C/c2c(C(=O)/C=C/c3ccc(C(F)(F)F)cc3)c(C)nc3ccccc23)cc1`
no

Hi team, can someone confirm the assay call for `Ic1ccc(-n2nnnc2-c2cnoc2-c2ccccc2)cc1` ?
no

Can you look up the reported call for `CCCCCCC[CH2][Sn]1([CH2]CCCCCCC)[O]C(=O)c2cccnc2[S]1` for me?
no
